Assign fluorescence index to each entry below.
- TGT: T1, class I MHC receptor HLA-A2 on T2 cells (human)
- T1 construct: detected on the cell surface with a mouse anti-human HLA-A2 monoclonal antibody and goat anti-mouse IgG F(ab')2-FITC; also called HLA-A2 receptor; HLA-A2 class I MHC
- MEASUREMENT DESCRIPTION: T2 cells, anti-HLA-A2 flow cytometry after brefeldin A; Assay #2; 0 hr
Numeric only. Scale: F.I.

Q: Tell me the measured fluorescence index of SLQESGLKV [Filamin B peptide #4] , please.
Ans: 1.61

Q: Now the same for GLAPLEVRV [Filamin B peptide #3]
Ans: 3.64

Q: Now the same for GQGDVMVFV [Filamin B peptide #6]
Ans: 1.96

Q: Now the same for KLILGLVWT [Filamin B peptide #7]
Ans: 1.25

Q: Now the same for LILGLVWTL [Filamin B peptide #1]
Ans: 2.17
